Could you please report measured Bioscreen MIC values Staphylococcus aureus for the items listed next?
- Test system: Staphylococcus aureus
- Type: cell-based
- test_settings: 18 h
Where no end group is shown, it is not given here.
Quick reminder: number only, in µM, skip the unit.

// Bioscreen MIC values Staphylococcus aureus lookup, substance = RRWVQRWIRRWRPWV-NH2 [SEQ ID NO: 6, RRWVQRWIRRWRPWV] , result: 10

// Bioscreen MIC values Staphylococcus aureus lookup, substance = RRWVQRWIRRWRPKW-NH2 [SEQ ID NO: 9, RRWVQRWIRRWRPKW] , result: 10

// Bioscreen MIC values Staphylococcus aureus lookup, substance = RRWVQRWIRRWRPKVAAARRWV-NH2 [SEQ ID NO: 10] , result: 10

// Bioscreen MIC values Staphylococcus aureus lookup, substance = RRWVQRWIRRWRKVAAARRWVQRWIRRWRPKV-NH2 [SEQ ID NO: 13] , result: 1.25

====

- System: Pseudomonas aeruginosa
- Type: cell-based
- test_settings: 18 h
Where no end group is shown, it is not given here.
result_type: Bioscreen MIC values Pseudomonas aeruginosa

// Bioscreen MIC values Pseudomonas aeruginosa lookup, substance = APKAMRWVQRWIRRWRPKLQKKGI-NH2 [SEQ ID NO: 26] , result: 10 µM

// Bioscreen MIC values Pseudomonas aeruginosa lookup, substance = RRWVQRWIRRWRPWV-NH2 [SEQ ID NO: 6, RRWVQRWIRRWRPWV] , result: 2.5 µM

// Bioscreen MIC values Pseudomonas aeruginosa lookup, substance = RRWVQRWIRRWRPKLQKKGI-NH2 [SEQ ID NO: 16] , result: 10 µM

// Bioscreen MIC values Pseudomonas aeruginosa lookup, substance = APKAMRRWVQRWIRRWRPKVLQKKGI-NH2 [SEQ ID NO: 18] , result: 5 µM

// Bioscreen MIC values Pseudomonas aeruginosa lookup, substance = APKAMRRWVQRWIRRWRPLQKKGI-NH2 [SEQ ID NO: 20] , result: 10 µM

// Bioscreen MIC values Pseudomonas aeruginosa lookup, substance = APKAMRRWVQRWIRRWRPKVLQKNNYL-NH2 [SEQ ID NO: 21] , result: 2.5 µM

// Bioscreen MIC values Pseudomonas aeruginosa lookup, substance = APKAMRRWVQRWIRRWRPKVFQVTGSSA-NH2 [SEQ ID NO: 22] , result: 10 µM

// Bioscreen MIC values Pseudomonas aeruginosa lookup, substance = RRWVRRWIRRWRPKV-NH2 [SEQ ID NO: 25, RRWVRRWIRRWRPKV] , result: 5 µM

// Bioscreen MIC values Pseudomonas aeruginosa lookup, substance = RFGRFLRKIRRFRPKVTITIQGSARF-NH2 [SEQ ID NO: 2, reference compound] , result: 1.25 µM

// Bioscreen MIC values Pseudomonas aeruginosa lookup, substance = RRWVQRWIRRWRPKRIVQRIKDFLRNLV-NH2 [SEQ ID NO: 11] , result: 1.25 µM
